# TESTED SYSTEM: human liver microsomal 2,3-oxidosqualene-lanosterol cyclase (OSC) (Homo sapiens, UniProt P48449)
pIC50: −log10 of the molar value.
EXPERIMENTAL READOUT: pIC50

a. C=CCN(C)C/C=C/COc1ccc(C(C)(O)c2ccc(Br)cc2)cc1 (racemic) [Example 8a]
b. C=CCN(C)CCCCCCOC1CCN(S(=O)(=O)c2ccc(Br)cc2)CC1 [Example 49]
Identify the entry with the larger pIC50. Options: a and b Pick one and reply with its label.
b

----------
# TESTED SYSTEM: human liver microsomal 2,3-oxidosqualene-lanosterol cyclase (OSC) (Homo sapiens, UniProt P48449)
# Construct: Liver microsomes from a healthy volunteer were prepared in sodium phosphate buffer (pH 7.4); from tissue; host or cells: human liver microsomes from a healthy volunteer
# Sequence (P48449 1-732): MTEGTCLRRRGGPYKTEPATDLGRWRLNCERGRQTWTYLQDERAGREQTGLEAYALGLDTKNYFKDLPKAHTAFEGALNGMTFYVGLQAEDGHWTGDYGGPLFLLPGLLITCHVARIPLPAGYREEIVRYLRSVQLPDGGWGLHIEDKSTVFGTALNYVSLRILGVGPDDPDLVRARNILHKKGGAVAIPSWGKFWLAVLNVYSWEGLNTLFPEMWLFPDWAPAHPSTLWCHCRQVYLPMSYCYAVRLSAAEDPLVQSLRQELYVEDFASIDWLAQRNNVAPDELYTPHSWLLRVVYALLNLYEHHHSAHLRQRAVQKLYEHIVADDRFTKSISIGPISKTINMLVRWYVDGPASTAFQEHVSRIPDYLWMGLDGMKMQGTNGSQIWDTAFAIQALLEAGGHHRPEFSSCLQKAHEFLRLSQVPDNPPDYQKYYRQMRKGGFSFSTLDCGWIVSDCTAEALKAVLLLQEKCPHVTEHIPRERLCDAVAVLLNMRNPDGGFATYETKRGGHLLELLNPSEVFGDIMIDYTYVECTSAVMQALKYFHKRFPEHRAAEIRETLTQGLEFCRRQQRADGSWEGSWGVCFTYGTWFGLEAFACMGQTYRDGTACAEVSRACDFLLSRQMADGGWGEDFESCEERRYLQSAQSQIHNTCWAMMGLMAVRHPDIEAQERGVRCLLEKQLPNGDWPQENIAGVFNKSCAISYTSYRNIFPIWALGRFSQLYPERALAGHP
# EXPERIMENTAL DETAILS: Inhibition of human liver microsomal 2,3-oxidosqualene-lanosterol cyclase (OSC)
# Format: biochemical
# PARTICULARS: constant test substance concentration of 100 nM; human liver microsomes, 1 hour at 37° C.; against controls
# Description: Inhibition of Human Liver Microsomal 2,3-Oxidosqualene-lanosterol Cyclase (OSC) Liver microsomes from a healthy volunteer were prepared in sodium phosphate buffer (pH 7.4). The OSC activity was measured in the same buffer which also contained 1 mM EDTA and 1 mM dithiothreitol. […] The test was carried out on the one hand with a constant test substance concentration of 100 nM and the percentage OSC inhibition against controls was calculated. […]
EXPERIMENTAL READOUT: inhibition at 0.1 µM (%)

C=CCN(C)CCCCCCOC1CCN(S(=O)(=O)c2ccc(Br)cc2)CC1 : 94
C=CCN(C)CCCCCCOc1ccc(C(C)(O)c2ccc(Br)cc2)c(F)c1 (racemic) : 82
C=CCN(C)CCCCCCNc1ccc(C(=O)c2ccc(Br)cc2)cc1F : 93
C=CCN(C)C/C=C(\C)CC/C=C(\C)CCC(=O)CCC=C(C)C [Example 54b] : 73
C=CCN(C)C/C=C/COc1ccc(C(O)(C=C)c2ccc(Br)cc2)cc1 (racemic) : 78
CN(C/C=C/COc1ccc(C(=O)c2ccc(C#N)cc2)cc1F)C1CC1 [Example 13b] : 93.5
CN(CCCCCCOc1ccc(C(=O)c2ccc(Br)cc2)c(F)c1)C1CC1 : 66
C=CCN(C)C/C=C/COc1ccc(C(=C)c2ccc(Br)cc2)cc1 : 90
C=CCN(C)C/C=C/COc1cc(F)c(C(=O)c2ccc(Br)cc2)cc1F : 90
